B1: Far upstream element-binding protein 2, residues 142 to 214; numbered along this chain, Q92945 (parent)
chain: RTSMTEEYRVPDGMVGLIIGRGGEQINKIQQDSGCKVQISPDSGGLPERSVSLTGAPESVQKAKMMLDDIVSR

- Variants of: B1
- protocol text: abundance fitness (aPCA) (normalised: wild type 0, dead -1); higher = more abundant; growth selection in yeast, the domain comes from the species named
- experimental conditions: Homo sapiens
Documented abundance fitness across a set of variants
Enter the number alone.

Specify abundance fitness for G22L and stop.
-0.234

Specify abundance fitness for S33C and stop.
-0.053

Specify abundance fitness for Q61C and stop.
-0.164

Specify abundance fitness for I29K and stop.
-0.787

Specify abundance fitness for I39C and stop.
-0.172

Specify abundance fitness for E24K and stop.
-0.078

---
Specify abundance fitness for I39L and stop.
-0.091

Specify abundance fitness for P57A and stop.
-0.101

Specify abundance fitness for S59A and stop.
0.008

Specify abundance fitness for Q38K and stop.
-0.068

Specify abundance fitness for C35P and stop.
-0.658

Specify abundance fitness for E58K and stop.
-0.065

Specify abundance fitness for L46K and stop.
0.061

Specify abundance fitness for D69L and stop.
-0.143

Specify abundance fitness for G45M and stop.
-0.208

Specify abundance fitness for Q38F and stop.
-0.075

Specify abundance fitness for G55C and stop.
-0.818

Specify abundance fitness for D69F and stop.
-0.284

Specify abundance fitness for Q25P and stop.
-0.264

Specify abundance fitness for E58V and stop.
-0.209

Specify abundance fitness for L53P and stop.
-0.998

Specify abundance fitness for S72T and stop.
-0.042

Specify abundance fitness for R49A and stop.
-0.021

Specify abundance fitness for S33H and stop.
-0.854

Specify abundance fitness for G45R and stop.
-0.164

Specify abundance fitness for G34Y and stop.
-0.998

Specify abundance fitness for V37W and stop.
-0.916

Specify abundance fitness for E48K and stop.
-0.158

Specify abundance fitness for K36R and stop.
-0.058

Specify abundance fitness for C35T and stop.
-0.406

Specify abundance fitness for S40H and stop.
-0.078
